Reference source for all entries: patent US9492460B2

Each entry below carries its recorded pIC50.
biological target: bromodomain BRD4 (44-168), BRD4 (333-460), and BRD4 (1-477 or 44-460) (Homo sapiens); construct: BRD4(44-168), BRD4(333-460), BRD4(44-460), BRD4(1-477), O60885-1; fused on or other part: N-terminal BirA biotinylation motif, biotinylated; The TVMV-cleavable His6 tag is removed, except in some BRD4(44-460) runs detected with anti-His terbium cryptate; test: Time Resolved Fluorescence Resonance Energy Transfer (TR-FRET) binding assay; settings: one of the FRET assays described
pIC50: −log10 of the molar value.

Known pIC50 results, listed for orientation:
1. Cc1noc(C)c1-c1cc(C(N)=O)c2c3cc(C(=O)N4CCC(F)C4)ccc3n(C(C)c3ccccc3)c2c1 (stereo not shown)
> 7.30
2. Cc1noc(C)c1-c1ccc2c3cc(C(=O)N4C[C@@H](C)O[C@@H](C)C4)ccc3n(C(=O)c3ccccc3)c2c1
> 6.30
3. Cc1noc(C)c1-c1cc(C(N)=O)c2c3cc(C(=O)N4CC(C)OC(C)C4)ccc3n(Cc3nccs3)c2c1 (stereo not shown)
> 7.30
4. Cc1noc(C)c1-c1cc(C(N)=O)c2c3cc(C(=O)N4CCCC4)ccc3n(Cc3ccccc3)c2c1
> 7.30
5. Cc1noc(C)c1-c1cc(C(N)=O)c2c3cc(C(=O)N4CCC(F)(F)C4)ccc3n(Cc3ccccc3)c2c1
> 7.30

Summary for this compound, `CCNC(=O)c1cc(-c2c(C)noc2C)cc2c1c1cc(N3CCCOC3=O)ccc1n2Cc1ccc(Cl)cc1` : pIC50 is > 5.12

Noted for `CNC(=O)c1cc(-c2c(C)noc2C)cc2c1c1cc(C(=O)N3CC(F)C3)ccc1n2Cc1ccccn1` : its pIC50 reads > 7.30

###

Each item that follows carries a reported IC50.
molecular target: bromodomain BRD4 (44-168), BRD4 (333-460), and BRD4 (1-477 or 44-460) (Homo sapiens); construct: BRD4(44-168), BRD4(333-460), BRD4(44-460), BRD4(1-477), O60885-1; fused on or other part: N-terminal BirA biotinylation motif, biotinylated; The TVMV-cleavable His6 tag is removed, except in some BRD4(44-460) runs detected with anti-His terbium cryptate; assay: Time Resolved Fluorescence Resonance Energy Transfer (TR-FRET) binding assay; conditions: one of the FRET assays described

1) Cc1noc(C)c1-c1cc(C(N)=O)c2c3cc(C(=O)N4CCC(C)(O)CC4)ccc3n(Cc3ccccc3)c2c1
< 50 nM
2) Cc1noc(C)c1-c1cc(C(N)=O)c2c3cc(C(=O)N4CC(C)OC(C)C4)ccc3n(Cc3cccc(C#N)c3)c2c1 (stereo not shown)
< 50 nM
3) CNC(=O)c1cc(-c2c(C)noc2C)cc2c1c1cc(N(C)C(C)=O)ccc1n2Cc1ccccc1
< 50 nM
4) Cc1noc(C)c1-c1ccc2c(c1)[nH]c1ccc(C(=O)N3CCOCC3)cc12
< 500 nM

For Cc1noc(C)c1-c1cc(C(N)=O)c2c3ccc(C(C)(C)O)cc3n(C(c3ccccc3)C3(F)CCC3)c2c1 (single isomer, unassigned) [Example 222] on bromodomain BRD4 (44-168), BRD4 (333-460), and BRD4 (1-477 or 44-460) (Homo sapiens), measured IC50 was < 50 nM

Cc1noc(C)c1-c1ccc2c3cc(C(=O)N4CC(C)OC(C)C4)ccc3n(Cc3ccccc3)c2c1 (stereo not shown) on bromodomain BRD4 (44-168), BRD4 (333-460), and BRD4 (1-477 or 44-460) (Homo sapiens) gives IC50 = < 50 nM

For `Cc1noc(C)c1-c1cc(C(N)=O)c2c3cc(N4CC(C)(C)COC4=O)ccc3n(Cc3ccc(F)cc3)c2c1` on bromodomain BRD4 (44-168), BRD4 (333-460), and BRD4 (1-477 or 44-460) (Homo sapiens), measured IC50 was < 50 nM
